Tested on: HepG2
Run description: cytotoxicity call (relative viability < 0.9)
Stated conditions: 10 µM
Out of some 39,000 compounds screened, about 3,300 (8.5%) were called active. The sample holds actives, similar compounds and a random draw of the others, so the mix is not that of the screen.
Labels: true (1) (active), false (0) (inactive)

>>> df
                                query_smiles  target_entity  class_name
 0  C[C@H]1CN([C@@H](C)CO)C(=O)c2cccc(NC(=O)Nc3ccc(C(F)(F)F)cc3)c2O[C@@H]1CN(C)C(=O)Nc1ccc(C(F)(F)F)cc1          HepG2    true (1)
 1  C[C@H](CO)N1C[C@H](C)[C@H](CN(C)C(=O)CN(C)C)Oc2cc(-c3ccc(C#N)cc3)ccc2S1(=O)=O          HepG2   false (0)
 2  C[C@@H]1CN([C@@H](C)CO)C(=O)c2cc(C#CC3(O)CCCC3)cnc2O[C@@H]1CN(C)C(=O)Cc1cccnc1          HepG2   false (0)
 3  C[C@@H]1CN([C@H](C)CO)C(=O)c2cccc(NC(=O)Nc3ccc(C(F)(F)F)cc3)c2O[C@@H]1CN(C)C(=O)Nc1ccc(C(F)(F)F)cc1          HepG2   false (0)
 4  COc1ccc(NC(=O)N(C)C[C@H]2Oc3c(NC(=O)Nc4ccc(C(F)(F)F)cc4)cccc3C(=O)N([C@@H](C)CO)C[C@H]2C)cc1          HepG2    true (1)
 5                CC(C)(C)NC(=O)N1CCC(CN)CC1          HepG2   false (0)
 6  O=C(N[C@H](c1ccc2ccccc2n1)c1cccs1)C1CCN(Cc2cccc(C(F)(F)F)c2)CC1          HepG2   false (0)
 7  C[C@@H]1CN([C@H](C)CO)C(=O)c2cccc(NC(=O)Nc3ccc(C(F)(F)F)cc3)c2O[C@H]1CN(C)C(=O)Nc1ccc(C(F)(F)F)cc1          HepG2   false (0)
 8  COc1ccc(NC(=O)Nc2cccc3c2O[C@H](CN(C)C(=O)Nc2ccc(C(F)(F)F)cc2)[C@@H](C)CN([C@@H](C)CO)C3=O)cc1          HepG2   false (0)
 9  CC(C)NC(=O)N(C)C[C@H]1Oc2ccc(NS(=O)(=O)c3ccc(Cl)cc3)cc2C(=O)N([C@H](C)CO)C[C@@H]1C          HepG2   false (0)
10  CC1(C)CC(=O)c2c(C(F)(F)F)nn(-c3ccc(C(N)=O)c(N[C@H]4CC[C@H](OC(=O)CN)CC4)c3)c2C1          HepG2    true (1)
11  O=C(C[C@H]1CC[C@H]2[C@@H](COC[C@@H](O)CN2C(=O)Nc2cccc(Cl)c2)O1)NCc1ccccc1F          HepG2   false (0)
12  CC(C)(C)NC(=O)[C@@H]1C[C@@H]2CCCC[C@@H]2CN1C[C@@H](O)[C@H](Cc1ccccc1)NC(=O)[C@H](CC(N)=O)NC(=O)c1ccc2ccccc2n1          HepG2   false (0)
13  COc1ccccc1CNC(=O)C[C@H]1C[C@@H]2c3cc(NC(=O)NC4CCCC4)ccc3O[C@@H]2[C@H](CO)O1          HepG2   false (0)
14  CC1(C)CC(=O)c2c(C(F)(F)F)nn(-c3ccc(C(N)=O)c(O[C@H]4CC[C@H](N)CC4)c3)c2C1          HepG2   false (0)

The reported numbers originate from the antibiotic and cytotoxicity screens of Wong et al. (2023).
